Recorded values, source PubChem BioAssay (NCI).

Each entry below carries its reported growth.
Tested on: M14 melanoma
Test: NCI-60 one-dose screen, 48 h (100 = growth as untreated, 0 = no growth, -100 = all killed)
Conditions: 10 µM unless noted
The panel holds about 83,000 compounds, 20% with a hit somewhere; the sample as a whole holds those more often.
Quick reminder: number only, in %, skip the unit.

// solved cases for growth follow
* NC(=NC1C2CC3CC(C2)CC1C3)Nc1ccc(I)cc1 (stereo not drawn) | 2.98
* NNCCc1ccc(NC(=O)CCCc2ccc(/C=C/C(=O)NO)cc2)cc1 | 61.1
* COc1cccc2c1C(=O)c1c(O)c3c(c(O)c1C2=O)C[C@](O)(C(=O)CO)C[C@H]3O[C@@H]1C[C@@H](NC(=O)CCCN(C)C2(c3ccc(F)cc3)CC3CCC2C3)[C@H](O)[C@@H](C)O1 (stereo partly drawn) | -86.8
* COc1ccc(Nc2cc(C)nc(N3CCN(c4ccnc5cc(Cl)ccc45)CC3)n2)cc1 | 27.3
* O=C(COc1ccc(-c2nc3cc(Cl)c(Cl)cc3[nH]2)cc1)N=Nc1c(O)[nH]c2ccccc12 | -22.1

Field growth (entry "O=C1c2cccc3cccc(c23)C(=O)N1CCCCN1CCN(CCCCOc2ccc(-c3nc4ccc(N5CCOCC5)cc4[nH]3)cc2)CC1" ) reads 98.4

Field growth (entry "COc1ccc2c(c1)O/C(=C\c1cccc(OCC(=O)Nc3nc4c(s3)CCCC4)c1)C2=O" ) reads 90.9

Field growth (entry "Cc1nn(-c2ccc(F)cc2)c2ncnc(Oc3ccc(NC(=O)Nc4ccc(Cl)c(C(F)(F)F)c4)cc3)c12" ) reads 106

----------
System: COLO 205 colon
Assay: NCI-60 one-dose screen, 48 h
Settings: 10 µM unless noted
About 83,000 compounds went through this panel and 20% of them were active in at least one assay; those are over-represented in the sample as a whole. The source made the active and inactive calls. The calls were made as follows: active = growth percent below 10; inactive = the rest.
# valid calls are YES = active, NO = inactive; nothing else

• COc1ccc(-c2n[nH]nc2-c2csc3ccccc23)cc1OC = NO
• Cc1ccc(/C=C2\SC(=S)N(CC(=O)NCCCN3CCOCC3)C2=O)cc1 = NO
• Cc1nc(Nc2ccc(F)c(Cl)c2)sc1C(=O)O = YES
• COc1cc2nc(N3CCCC3)nc(NCc3ccccc3)c2cc1OC = YES
• Cn1cc(-c2nonc2-c2c[nH]c3ccc(F)cc23)c2cccnc21 = NO
• COc1cc(/C=C/C(=O)c2ccc(O)c(CN3CCN(c4cc5c(cc4F)c(=O)c(C(=O)O)cn5C4CC4)CC3)c2)cc(OC)c1OC = NO

Would you mind telling me which call this test gave "C=CC(=O)Nc1cccc(-c2nc(SC)nc(Nc3ccccc3OC)c2C#N)c1" ?
NO

Would you mind telling me which call this test gave "Cn1c(NCCc2ccc(O)c(O)c2)nc2c1c(=O)n(Cc1ccc(Br)cc1)c(=O)n2C" ?
NO

Would you mind telling me which call this test gave "NS(=O)(=O)c1ccc(CN=C2NC(=O)S/C2=C\c2ccc(Br)cc2)cc1" ?
NO

Would you mind telling me which call this test gave c1csc(C2=NN3C(C2)c2ccccc2OC3c2ccncc2)c1 (stereo unspecified) ?
NO

Would you mind telling me which call this test gave "Cn1cccc1-c1nc2c3c(ccc2[nH]1)C(=O)c1ccccc1C3=O" ?
NO

Would you mind telling me which call this test gave "CCNC(=O)Oc1ccc(/C(=C(\C)c2ccc(Cl)cc2)c2ccc(OCCN3CCCCC3)cc2)cc1" ?
YES

Would you mind telling me which call this test gave "O=C1/C(=C/c2ccccc2O)N=C2SCCCN12" ?
NO

Would you mind telling me which call this test gave "O=C1CC[C@H](c2ccc(O)c3c2C(=O)[C@@H]2O[C@@H]2C3=O)c2cccc(O)c21" ?
YES

Would you mind telling me which call this test gave CN1C(=O)C2(SCC(C(=O)NCc3ccccc3)N2C(=O)C2CCCCC2)c2ccccc21 (stereo unspecified) ?
NO

Would you mind telling me which call this test gave "COc1ccc(/C=C/c2nc(-c3n[nH]c(=O)n3-c3ccccc3)c3ccccc3n2)cc1" ?
NO

----------
Tested on: HOP-62 NSCLC
Assay: NCI-60 one-dose screen, 48 h (100 = growth as untreated, 0 = no growth, -100 = all killed)
Settings: 10 µM unless noted
This is part of a sample that, as a whole, favours compounds with a hit. Of some 83,000 tested, about 20% had one in any assay. Calls of active or inactive are those of the source. Rule for the calls: active = growth percent below 10; inactive = the rest.
TEST READOUT: growth

// solved cases for growth follow
* COc1ccc(/C=C/c2nc3ccccc3nc2/C=C/c2ccc(OC)cc2)cc1 | 104% (inactive)
* COc1cc2c(cc1O)CC[C@@H]1[C@@H]2CC[C@]2(C)[C@@H](NCCN(C)C)CC[C@@H]12 | -76.3% (active)
* NNCCc1ccc(NC(=O)CCCc2ccc(/C=C/C(=O)NO)cc2)cc1 | 32.8% (inactive)
* O=C(Nc1ccccc1Cl)c1ccc(NC2=C(Cl)C(=O)N(C3CCCCC3)C2=O)cc1 | 88.4% [30 µM] (inactive)

Field growth (entry COc1cccc(C2=NN3C(C2)c2cc(Br)cc(OC)c2OC32CCN(Cc3ccccc3)CC2)c1 (stereo not drawn) ) reads 105% (inactive)

Field growth (entry "O=C1Nc2c(ccc(Cl)c2Cl)/C1=C\c1cc(C(F)(F)F)cc(C(F)(F)F)c1" ) reads 20.2% (inactive)

Field growth (entry "CCCOc1cc2ccccc2cc1C(=O)Nc1nc(N)c2c(ccc3nccc32)[nH]1" ) reads -68.8% (active)

Field growth (entry "CC1=C/C(=C(\c2ccc(N(C)C)cc2)c2ccc([N+](C)(C)C)cc2)C=CC1=[N+](C)C" ) reads 37% (inactive)

Field growth (entry CSc1ccc(SC2c3ccc(C)cc3Oc3nc(N)c(C#N)c(N)c32)cc1 (stereo not drawn) ) reads -27.8% (active)

Field growth (entry "COc1cc(-c2nc3cc(Cl)c(Cl)cc3[nH]2)ccc1OCC(=O)N=Nc1c(O)[nH]c2ccccc12" ) reads -60.2% (active)

Field growth (entry "C#CC(F)(F)[C@]1(O)CC[C@H]2[C@@H]3CCC4=CC(=O)CCC4=C3[C@@H](c3ccc(C4CC4)cc3)C[C@@]21C" ) reads 9.06% (active)

Field growth (entry "Cc1[nH]c(-c2ccc3cc[nH]c3c2)c2c1C(=O)CCCC2" ) reads 32.3% (inactive)

Field growth (entry "CC(C)C1=C[C@@]23CC[C@@H]4[C@](C)(CCC[C@@]4(C)C(=O)N4CCCNCC4)[C@H]2C[C@@H]1[C@H]1C(=O)CCC(=O)[C@H]13" ) reads 97.3% (inactive)

Field growth (entry "COc1cc(-c2nc(C(=O)NCC(=O)NO)nn2-c2ccc(Cl)cc2)cc(OC)c1OC" ) reads 93.6% (inactive)

----------
Tested on: SN12C renal
Test: NCI-60 one-dose screen, 48 h (100 = growth as untreated, 0 = no growth, -100 = all killed)
Details: 10 µM unless noted
Compounds without any hit were thinned out: in the full panel of roughly 83,000, 20% have a hit. Active and inactive are the calls of the source. The calls were made as follows: active = growth percent below 10; inactive = the rest.
TEST READOUT: growth

// solved cases for growth follow
* O=C1OCC2=C1C(c1ccncc1)c1cc3c(cc1N2CCO)OCO3 (stereo unspecified) | 100% (inactive)
* Oc1ccc(N=Cc2ccccc2O)cc1 | 102% (inactive)
* CSc1nc(-c2cccc(NC(=O)CCl)c2)c(C#N)c(=O)n1C | 81% (inactive)

Field growth (entry "COc1cc(/C=C/C(=O)c2c(C)oc3nc[nH]c(=O)c23)cc(OC)c1OC" ) reads 79.8% (inactive)

Field growth (entry "CC1=CC(C)(C)Nc2ccc(Cc3ccc4c(c3)C(C)=CC(C)(C)N4)cc21" ) reads 97.1% (inactive)

Field growth (entry "CC(=O)c1cc2c(N)c(C(=O)Nc3ccccc3)sc2nc1C" ) reads 90.8% (inactive)

Field growth (entry "N#Cc1cnn(-c2nc3c(Cl)cccc3s2)c1N" ) reads 88.5% (inactive)

Field growth (entry "COc1ccc(NC2=C(Sc3nc(C)cc(C)n3)C(=O)N(Cc3ccccc3)C2=O)cc1Cl" ) reads 91.8% [30 µM] (inactive)

----------
Tested on: MDA-MB-231 breast
Experiment: NCI-60 one-dose screen, 48 h
Details: 10 µM unless noted
This is part of a sample that, as a whole, favours compounds with a hit. Of some 83,000 tested, about 20% had one in any assay. The source made the active and inactive calls. How the source made its calls: active means growth percent below 10; inactive means the rest.
# valid calls are Y for active, N for inactive; nothing else

Before answering, review these 3 worked examples.
• O=C1/C(=C/c2ccccc2O)N=C2SCCCN12 = N
• Cc1cc(C)nc(SC2=C(Nc3ccc(C)c(Cl)c3)C(=O)N(Cc3ccccc3)C2=O)n1 = N
• COc1cc(C(=O)Oc2ccccc2OC(=O)c2cc(OC)c(OC)c(OC)c2)cc(OC)c1OC = N

Would you mind telling me which call this test gave Cc1ccc2c(C(C[N+](=O)[O-])c3ccco3)c(-c3ccccc3)[nH]c2c1 (centres undefined) ?
N

Would you mind telling me which call this test gave COc1ccc(C2CC(c3ccc(Cl)cc3)=NN2/C=C2\SC(=S)N(NC(=O)Cc3ccccc3Nc3c(Cl)cccc3Cl)C2=O)cc1 (centres undefined) ?
N
